What self-cleavage was measured for each of the following?
B1: CPEB3 Ribozyme (parent)
chain: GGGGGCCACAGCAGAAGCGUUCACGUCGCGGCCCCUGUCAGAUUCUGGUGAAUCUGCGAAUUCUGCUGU

variants of: B1; assay: self-cleavage, relative activity (ratio to wild type); higher = more cleavage; co-transcriptional
Numbers only.

Below, each entry is followed by its recorded self-cleavage result.
GGGGGCCACAGCAGAAGCGUUCACGUCCCGGCCCCUGGCAGAUUCUGGUGAAUCUGCGAAUUCUGCUGU [G28C U38G]: 0.133
GGGGGCCACAGCAGAAGCGUUCACGUCCCGGCCCCUGUCAGAUUCUGGUGAAUCUGCGAAUUCUGCUGG [G28C U69G]: 0.301
GGGGGCCACAGCAGAAGCGGUCACGUCGCGGCCCCGGUCAGAUUCUGGUGAAUCUGCGAAUUCUGCUGU [U20G U36G]: 0.16
GGGGGCCACAGCAGAAGCGUUCACGUCGCCGCCCCUGUCAGAUUCUGGUGAAUCUUCGAAUUCUGCUGU [G30C G56U]: 0.404

For each of the items listed, what is its self-cleavage?
1. GGGGGCCACAGCAGAAGCGUUCACGUCGCGGCCCCUGUCACAUUCUUGUGAAUCUGCGAAUUCUGCUGU [G41C G47U]
2. GGGGGCCACAGCAGAAGCGUUCACGUCGCGGGCCCUGUCAGAUUCCGGUGAAUCUGCGAAUUCUGCUGU [C32G U46C]
3. GGGGGCCACAGCAGAAGCGUUCACGUCGCGGCCCCUGUCACAUUCUGGUGAAUCUGAGAAUUCUGCUGU [G41C C57A]
4. GGGGGCCACAGCAGAAGGGUUCACAUCGCGGCCCCUGUCAGAUUCUGGUGAAUCUGCGAAUUCUGCUGU [C18G G25A]
5. GGGGGCCACAGCAGAAGAGUUCACGUCGCGGCACCUGUCAGAUUCUGGUGAAUCUGCGAAUUCUGCUGU [C18A C33A]
6. GGGGGCCACAGCAGAAGCGUUCACGUAGCGGCCCCUGUCAGAUUCUGGUGAAGCUGCGAAUUCUGCUGU [C27A U53G]
7. GGGGGCCACAGCAGAAGCGUUAACGUCGCGGCCCCUGUCAGAUUCUGGUGAAUCUGCGAAUUCUGCCGU [C22A U67C]

Response given:
1. 0.935
2. 0.594
3. 0.285
4. 0.174
5. 0.153
6. 0.338
7. 0.21

Dear colleague, could you please provide self-cleavage for the variants listed below?
1. GGGGGCCACAGCAGAAGCCUUCACGUCGCGGCCCCUGUCAGAUUCUGCUGAAUCUGCGAAUUCUGCUGU [G19C G48C]
2. GGGGGCCACAGCAGAAGCGUUCACGUCGCGGACGCUGUCAGAUUCUGGUGAAUCUGCGAAUUCUGCUGU [C32A C34G]
3. GGUGGCCACAGCAGAAGCGUUCACUUCGCGGCCCCUGUCAGAUUCUGGUGAAUCUGCGAAUUCUGCUGU [G3U G25U]
4. GGGGGCCACAGCAGAAGCGUUCACGUCGCGGCCCCUGUCAGAUUCUGGUGAAUUUGCGAAUUUUGCUGU [C54U C63U]
5. GGGGGCCACAGCAGAAGCGUUCACGUCGUGGCCCCUGUCAGAUUCUGGUGAAUCUGCCAAUUCUGCUGU [C29U G58C]
6. GGGGGCCACAGCAGAAGCGUUCACGUCGCGGCCCCUGUCAGAUUCUGGUGAAUCUGUGAAUUCCGCUGU [C57U U64C]
7. GGGGGCCAGAGCAGAAGCGUUCACGUCGCGGCCCCUGUCAGAUUCCGGUGAAUCUGCGAAUUCUGCUGU [C9G U46C]
8. GGGGGCCACAGCAGAAGCGUUCUCGUCACGGCCCCUGUCAGAUUCUGGUGAAUCUGCGAAUUCUGCUGU [A23U G28A]

Response given:
1: 0.169; 2: 0.228; 3: 0.0356; 4: 1.02; 5: 0.398; 6: 0.556; 7: 0.937; 8: 0.226

Quick batch: self-cleavage for everything below.
1. GGGGCCCACAGCAGAAGCGUUCACGUCGCGGCCCCUGUCAGGUUCUGGUGAAUCUGCGAAUUCUGCUGU [G5C A42G]
2. GGGGGCCUCAGCAGAAGCGUUCACGUCGCUGCCCCUGUCAGAUUCUGGUGAAUCUGCGAAUUCUGCUGU [A8U G30U]
3. GGGGGCCACAGCAGGAGCGUUCACGUCGCGGCCCCUGUCAGAGUCUGGUGAAUCUGCGAAUUCUGCUGU [A15G U43G]

Response given:
0.282
0.519
0.779

Please go through the list and note self-cleavage for each variant.
1. GGGGGCCACAGCAGAAGCGUUCACGUCGCGGCCCCUGUCGGAUUCUGGUGAAUCUGCGAAUUCUUCUGU [A40G G65U]
2. GGGCGCCACAGCAGAAGCGUUCAUGUCGCGGCCCCUGUCAGAUUCUGGUGAAUCUGCGAAUUCUGCUGU [G4C C24U]
3. GGGUGCCACAGCAGAAGCGUUCACGUCGCGGCCCCUGUCAGAUUCUGGUGAAUCUGCGAAUACUGCUGU [G4U U62A]

Response given:
1. 0.519
2. 0.124
3. 0.315

// each listed variant needs a value for self-cleavage
1. GGGGGCCACAGCAGAAGGGUACACGUCGCGGCCCCUGUCAGAUUCUGGUGAAUCUGCGAAUUCUGCUGU [C18G U21A]
2. GGGGGCCACAGCCGAAGCGUUCACGUCGCGGCCCCUGUCAGAUUCUGGUGAAUCAGCGAAUUCUGCUGU [A13C U55A]
3. GGGGGCUACAGCAGAAGCGUUCACGUCGCUGCCCCUGUCAGAUUCUGGUGAAUCUGCGAAUUCUGCUGU [C7U G30U]

Response given:
1: 0.217; 2: 0.315; 3: 0.814

Provide self-cleavage for all items below, preserving their order.
1. GGGGGCCACAGCAGAAGCGUUCAUGUCGCGGCCCCUGUCCGAUUCUGGUGAAUCUGCGAAUUCUGCUGU [C24U A40C]
2. GGGGUCCACAGCAGAAGCGUUCACGUCGCGGCCCCUGUCAGAUUCUGGUGAAUCUGCCAAUUCUGCUGU [G5U G58C]
3. GGGGCCCACAGCAGAAGCGUUCACGUCGCGGCCCGUGUCAGAUUCUGGUGAAUCUGCGAAUUCUGCUGU [G5C C35G]
4. GGGGGCCACAGCAGAAGCGUUCACGUCGCGGACCCUGUCAGAUUCUGGUGAAUCUGCGAAUUCUGCUCU [C32A G68C]
5. GGGGCCCACAGCAGAAGCGUUCACGUCGCGGCCCCUGUCAGAUUCUGGUGAAACUGCGAAUUCUGCUGU [G5C U53A]
6. GGGGGCCACAGCAGAAGCGUUCAGGUCGCGGCGCCUGUCAGAUUCUGGUGAAUCUGCGAAUUCUGCUGU [C24G C33G]
7. GGGGGCCACAGCCGAAGCGUUCACGUCGCGGCCCCUGUCAGAUUCUGGUGAAUCUGCGAAUACUGCUGU [A13C U62A]
8. GGGGGCCACAGCAGAAGCGUUCACGUCGCGGCGCCUGUCAGAUUCUGGUGAUUCUGCGAAUUCUGCUGU [C33G A52U]

Response given:
1. 0.228
2. 0.2
3. 0.121
4. 0.913
5. 0.175
6. 0.201
7. 0.348
8. 0.444

Give me self-cleavage for each of these variants, listed below.
1. AGGGGCCACAGCAGAAGCAUUCACGUCGCGGCCCCUGUCAGAUUCUGGUGAAUCUGCGAAUUCUGCUGU [G1A G19A]
2. GGGGGCCACAGCAGAACCGUUCACGUCGCGGCCCCUGUCAGGUUCUGGUGAAUCUGCGAAUUCUGCUGU [G17C A42G]
3. GGGGGCCACAGCAGAAGCGUUCACGUCGCGGCCACUGUCAGAUUCUGGUGUAUCUGCGAAUUCUGCUGU [C34A A51U]
4. GGGGGCCACAGCAGAAGCGUUCACGUCGCGGCCCCUGUCAGUUUCUAGUGAAUCUGCGAAUUCUGCUGU [A42U G47A]

Response given:
[0.0657, 0.128, 0.521, 0.957]

Required: self-cleavage, one value per variant below.
1. GGGGGCCACAGCAGAAGCGUUCACGUCGCGGCACCUGUCAGGUUCUGGUGAAUCUGCGAAUUCUGCUGU [C33A A42G]
2. GGGGGCCACAGCAGACGCGUUCACGUCGCGGCCCCUGUCAGAUUCUGGUGAAUCUGCGCAUUCUGCUGU [A16C A59C]

Response given:
1. 0.685
2. 0.106
